- Test system: STING WT: His-TVMV-S-hSTING(155-341)-H232R (Homo sapiens, UniProt Q86WV6, H232R)
- Construct: His-TVMV-S-hSTING(155-341)-H232R
- Sequence (Q86WV6 with tags, fused parts or gaps H232R): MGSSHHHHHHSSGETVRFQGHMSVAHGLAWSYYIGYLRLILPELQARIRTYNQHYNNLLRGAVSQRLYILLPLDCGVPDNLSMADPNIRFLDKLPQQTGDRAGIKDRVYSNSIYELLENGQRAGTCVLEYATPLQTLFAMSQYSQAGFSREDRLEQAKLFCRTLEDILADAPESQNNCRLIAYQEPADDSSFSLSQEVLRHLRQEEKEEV
- Assay summary: STING HTRF binding assay (time resolved FRET competition), STING WT
- Condition notes: 20 nM His-tagged STING cytoplasmic domain, 200 nM fluorescein-labeled cGAMP analog probe, one hour; read-out: HTRF Binding Assays IC50 STING WT
- Method: A time resolved FRET-based competition binding assay was used to assess test article binding to STING WT and STING AQ. […] Fluorescence at 495 nm and 520 nm was measured using an EnVision microplate reader to quantify FRET between Tb-labeled anti-His antibody and fluorescein-labeled probe. […] Percent inhibition was determined for test compounds at 11 concentrations. […]
Test readout: IC50

• Nc1ncnc2c1ncn2[C@@H]1C[C@@H]2COP(O)(=S)O[C@H]3[C@H](F)[C@H](n4ccc5c(Cl)ncnc54)O[C@@H]3COP(O)(=S)OC[C@H]21 (single isomer, unassigned) [Example 7-1] = > 100 µM
• Nc1ncnc2c1ncn2[C@@H]1C[C@@H]2COP(O)(=S)O[C@H]3C[C@H](n4ccc5c(Cl)ncnc54)O[C@@H]3COP(=O)(S)OC[C@H]21 (single isomer, unassigned) [Example 6-4] = > 100 µM

Lab note: next compound to report on.
# IC50 (compound: Nc1ncnc2c1ncn2[C@@H]1C[C@@H]2COP(O)(=S)O[C@H]3[C@H](F)[C@H](n4ccc5c(Cl)ncnc54)O[C@@H]3COP(O)(=S)OC[C@H]21 (single isomer, unassigned) [Example 7-2] ) is > 100 µM

----------
Give measured IC50 for each item. Keep answers brief.
- Test system: STING WT: His-TVMV-S-hSTING(155-341)-H232R (Homo sapiens, UniProt Q86WV6, H232R)
- Construct: His-TVMV-S-hSTING(155-341)-H232R
- Assay summary: STING HTRF binding assay (time resolved FRET competition), STING WT
- Condition notes: 20 nM His-tagged STING cytoplasmic domain, 200 nM fluorescein-labeled cGAMP analog probe, one hour; read-out: HTRF Binding Assays IC50 STING WT

• Nc1ncnc2c1ccn2[C@@H]1O[C@@H]2COP(O)(=S)OC[C@@H]3[C@@H](COP(O)(=S)O[C@H]2[C@@H]1F)C[C@H]3n1cnc2c(N)ncnc21 (single isomer, unassigned) [Example 8-3] = > 100 µM
• Nc1ncnc2c1ncn2[C@@H]1C[C@@H]2COP(O)(=S)O[C@H]3[C@H](F)[C@H](n4cnc5c(N)ncnc54)O[C@@H]3COP(O)(=S)OC[C@H]21 (single isomer, unassigned) [Example 17-1] = > 100 µM

# IC50 (compound: Nc1ncnc2c1ncn2[C@@H]1C[C@@H]2COP(O)(=S)O[C@H]3C[C@H](n4ccc5c(Cl)ncnc54)O[C@@H]3COP(=O)(S)OC[C@H]21 (single isomer, unassigned) [Example 6-3] ) is > 100 µM
